The values you see were collected from paper PMC5622025.

Test system: HCV
METHOD DESCRIPTION: Anti-HCV effect in vitro, intracellular HCV RNA by real-time RT-PCR in infected Huh7.5 cells
Type: cell-based, hepatitis C virus
CONDITION INFO: HCV-infected Huh7.5 cells, 72 h, real-time RT-PCR; read-out: EC50 (concentration required to inhibit HCV growth by 50%)
pEC50: −log10 of the molar value.
A collection of molecules and their measured pEC50
OBSERVABLE: pEC50

[[record]]
molecule = "COC(=O)C/C=C\\[C@@H]1[C@H]2CCCN3CCC[C@@H](CN1Cc1cccc([N+](=O)[O-])c1)[C@@H]23.Cl.Cl [13c]"
observable = "pEC50"
relation = "="
endpoint_value = 4.39

[[record]]
molecule = "COC(=O)CCCC1C2CCCN3CCCC(CN1Cc1ccc([N+](=O)[O-])cc1)C23.Cl.Cl (centres unmarked)"
observable = "pEC50"
relation = "="
endpoint_value = 4.85

[[record]]
molecule = "Cl.Cl.OCC/C=C\\C1C2CCCN3CCCC(CN1Cc1ccc(F)cc1)C23 (centres unmarked) [14b]"
observable = "pEC50"
relation = "="
endpoint_value = 4.87

[[record]]
molecule = "CCCCCCCN1C[C@@H]2CCCN3CCC[C@@H]([C@H]23)[C@H]1CCCCO"
observable = "pEC50"
relation = "="
endpoint_value = 6.00

[[record]]
molecule = "Cl.Cl.O=C(CN1CC2CCCN3CCCC(C1CCCCO)C23)Nc1ccc(C(F)(F)F)cc1 (centres unmarked)"
observable = "pEC50"
relation = "="
endpoint_value = 5.38

[[record]]
molecule = "Cc1ccc(CN2C[C@@H]3CCCN4CCC[C@@H]([C@H]34)[C@H]2CCCCO)cc1.Cl.Cl"
observable = "pEC50"
relation = ">"
endpoint_value = 5.69

[[record]]
molecule = "O=C(CN1C[C@@H]2CCCN3CCC[C@@H]([C@H]23)[C@H]1CCCCO)Nc1ccccc1 [7 h, 12N-(2-Oxo-2-(phenylamino)ethyl)matrinol]"
observable = "pEC50"
relation = "="
endpoint_value = 4.33

[[record]]
molecule = "OCCCC[C@@H]1[C@H]2CCCN3CCC[C@@H](CN1Cc1ccc(F)cc1)[C@@H]23"
observable = "pEC50"
relation = "="
endpoint_value = 5.52


----------
Test system: Huh7.5 cells
METHOD DESCRIPTION: Cytotoxicity assay (MTT) in Huh7.5 cells
Type: cell-based, human
OBSERVABLE: CC50 (µM)

[[record]]
compound = "Cc1ccc(CN2CC3CCCN4CCCC(C2CCCC(C)(C)O)C34)cc1.Cl.Cl (centres unmarked) [10b]"
relation = "="
endpoint_value = 55.7

[[record]]
compound = "COC(=O)CCCC1C2CCCN3CCCC(CN1Cc1ccc([N+](=O)[O-])cc1)C23.Cl.Cl (centres unmarked)"
relation = "="
endpoint_value = 235

[[record]]
compound = "Cl.Cl.OCCCC[C@@H]1[C@H]2CCCN3CCC[C@@H](CN1Cc1ccncc1)[C@@H]23"
relation = ">"
endpoint_value = 500

[[record]]
compound = "COC(=O)C/C=C\\C1C2CCCN3CCCC(CN1Cc1ccc(OC)cc1)C23 (centres unmarked) [13a]"
relation = "="
endpoint_value = 326

[[record]]
compound = "Cl.Cl.OCCCCC1C2CCCN3CCCC(CN1Cc1ccc(Cl)cn1)C23 (centres unmarked)"
relation = ">"
endpoint_value = 500


----------
METHOD DESCRIPTION: PK study after single oral dosing
Assay type: in vivo, SD rats
CONDITION INFO: rats, single oral dosing of 25 mg kg^−1, n = 3
OBSERVABLE: Cmax (nM)

[[record]]
compound = "COc1ccc(CN2CC3CCCN4CCCC(C2CCCCO)C34)cc1.Cl.Cl (centres unmarked) [7a]"
endpoint_value = 620

[[record]]
compound = "Cc1ccc(CN2C[C@@H]3CCCN4CCC[C@@H]([C@H]34)[C@H]2CCCCO)cc1.Cl.Cl [7b]"
endpoint_value = 790


----------
A collection of compounds and their measured CC50
Tested on: Huh7.5 cells
METHOD DESCRIPTION: Cytotoxicity assay (MTT) in Huh7.5 cells
Type: cell-based, human
OBSERVABLE: CC50 (µM)

[[record]]
compound = "CCCCCCCCN1C[C@@H]2CCCN3CCC[C@@H]([C@H]23)[C@H]1CCCCO [3d]"
observable = "CC50"
relation = "="
endpoint_value = 17.8

[[record]]
compound = "OCCCC[C@@H]1[C@H]2CCCN3CCC[C@@H](CN1Cc1ccc(F)cc1)[C@@H]23 [3a]"
observable = "CC50"
relation = "="
endpoint_value = 285

[[record]]
compound = "COc1ccc(CN2C[C@@H]3CCCN4CCC[C@@H]([C@H]34)[C@H]2CCCC(C)(C)O)cc1.Cl.Cl [10a]"
observable = "CC50"
relation = ">"
endpoint_value = 140

[[record]]
compound = "O=C(CN1C[C@@H]2CCCN3CCC[C@@H]([C@H]23)[C@H]1CCCCO)Nc1ccccc1 [7 h, 12N-(2-Oxo-2-(phenylamino)ethyl)matrinol]"
observable = "CC50"
relation = ">"
endpoint_value = 500


----------
Tested on: Huh7.5 cells
METHOD DESCRIPTION: Cytotoxicity assay (MTT) in Huh7.5 cells
Format: cell-based, human
OBSERVABLE: CC50 (µM)

[[record]]
compound = "C=Cc1ccc(CN2C[C@@H]3CCCN4CCC[C@@H]([C@H]34)[C@H]2CCCCO)cc1.Cl.Cl"
relation = "="
endpoint_value = 143

[[record]]
compound = "OCCCCC1C2CCCN3CCCC(CN1Cc1cccnc1)C23 (stereo not shown) [7f, 12N-(Pyridin-3-ylmethyl)matrinol]"
relation = ">"
endpoint_value = 500

[[record]]
compound = "CC(C)(O)CCC[C@@H]1[C@H]2CCCN3CCC[C@@H](CN1Cc1ccncc1)[C@@H]23 [10e]"
relation = ">"
endpoint_value = 500

[[record]]
compound = "Cl.Cl.OCC/C=C\\C1C2CCCN3CCCC(CN1Cc1ccc(F)cc1)C23 (stereo not shown) [14b]"
relation = "="
endpoint_value = 156


----------
Tested on: Huh7.5 cells
METHOD DESCRIPTION: Cytotoxicity assay (MTT) in Huh7.5 cells
Assay type: cell-based, human
CONDITION INFO: Huh7.5 cells, 72 h, MTT; read-out: CC50 (cytotoxic concentration required to inhibit Huh7.5 cell growth by 50%)
A collection of compounds and their measured CC50
OBSERVABLE: CC50 (µM)

[[record]]
compound = "Cc1ccc(CN2C[C@@H]3CCCN4CCC[C@@H]([C@H]34)[C@H]2CCCCO)cc1.Cl.Cl [7b]"
test_system = "Huh7.5 cells"
endpoint_value = 252

[[record]]
compound = "COC(=O)C/C=C\\[C@@H]1[C@H]2CCCN3CCC[C@@H](CN1Cc1cccc([N+](=O)[O-])c1)[C@@H]23.Cl.Cl [13c]"
test_system = "Huh7.5 cells"
endpoint_value = 402

[[record]]
compound = "COC(=O)CCC[C@@H]1[C@H]2CCCN3CCC[C@@H](CN1Cc1ccc(F)cc1F)[C@@H]23 [6d, Methyl 12N-(2,4-difluorobenzyl)matrinate]"
test_system = "Huh7.5 cells"
endpoint_value = 261

[[record]]
compound = "OCCCCC1C2CCCN3CCCC(CN1Cc1ccc(F)cc1F)C23 (centres unmarked) [7d]"
test_system = "Huh7.5 cells"
endpoint_value = 266

[[record]]
compound = "COC(=O)CCC[C@@H]1[C@H]2CCCN3CCC[C@@H](CN1Cc1ccc(C)cc1)[C@@H]23 [6b, Methyl 12N-(4-methylbenzyl)matrinate]"
test_system = "Huh7.5 cells"
endpoint_value = 133

[[record]]
compound = "COc1ccc(CN2CC3CCCN4CCCC(C2CCCCO)C34)cc1.Cl.Cl (centres unmarked) [7a]"
test_system = "Huh7.5 cells"
endpoint_value = 383

[[record]]
compound = "COC(=O)CCC[C@@H]1[C@H]2CCCN3CCC[C@@H](CN1Cc1ccc(F)cc1)[C@@H]23 [compound 2]"
test_system = "Huh7.5 cells"
endpoint_value = 274

[[record]]
compound = "C=Cc1ccc(CN2C[C@@H]3CCCN4CCC[C@@H]([C@H]34)[C@H]2CCCC(=O)OC)cc1 [6c, Methyl 12N-(4-vinylbenzyl)matrinate]"
test_system = "Huh7.5 cells"
endpoint_value = 81.2


----------
METHOD DESCRIPTION: Cytotoxicity assay (MTT) in Huh7.5 cells
Type: cell-based, human
CONDITION INFO: human; Huh7.5 cells, 72 h, MTT; read-out: CC50 (cytotoxic concentration required to inhibit Huh7.5 cell growth by 50%)
OBSERVABLE: CC50 at 72 h

[[record]]
molecule = "CCCC[C@@H]1[C@H]2CCCN3CCC[C@@H](CN1Cc1ccc(OC)cc1)[C@@H]23 [compound 9, 12N-4-methoxybenzyl matrinic butane]"
endpoint_value = "41.9 µM"

[[record]]
molecule = "COc1ccc(CN2C[C@@H]3CCCN4CCC[C@@H]([C@H]34)[C@H]2CCCC(=O)O)cc1 [compound 1, 12N-4-methoxylbenzyl matrinic acid]"
endpoint_value = "> 1000 µM"

[[record]]
molecule = "O=[N+]([O-])c1cccc(CN2C[C@@H]3CCCN4CCC[C@@H]([C@H]34)[C@H]2/C=C\\CCO)c1"
endpoint_value = "312 µM"

